# experiment: Stability in solution (UV–vis, ESI–MS), metal-free
# Type: physicochemical
# assay conditions: HEPES buffer, pH 7.4, 50 μM, HEPES pH 7.4, 150 μM NaCl, 37 °C; absorbance peak decay; read-out: t1/2, metal-free
assay endpoint: half-life at 50 μM
The reply must contain the numeric value and, after it, the unit.

Tell us which half-life at 50 μM value is on record for `CN(C)c1ccc(NCc2ccc[nH]2)cc1`
43 min

* * *

# experiment: Stability in solution (UV–vis, ESI–MS), metal-free
# Assay type: physicochemical
# assay conditions: metal-free, 50 μM, HEPES pH 7.4, 37 °C, 5 h
assay endpoint: Stability in solution

# smiles representation, observed measurement
rows = [
    ("COc1cc(NCc2ccccn2)cc(OC)c1", "stable over 5 h"),
    ("Nc1ccc(NCc2ccccn2)cc1", "stable over 5 h"),
]

* * *

# experiment: Solubility
# Type: physicochemical
# assay conditions: water; HCl salt
Structures can show the parent of a compound that is named as a salt.
assay endpoint: solubility

Retrieve solubility measured for Nc1ccc(NCc2ccccn2)cc1 [HCl salt of 1] and print it.
~800 mg/mL

* * *

# experiment: Cell viability (MTT assay), compounds with and without metal ions
# Assay type: cell-based, human
# assay conditions: human, SK-N-BE(2)-M17 (M17) neuroblastoma cells; M17 cells, in the absence of Cu(II), 48 and 72 h
assay endpoint: viability at up to 20 μM

Find the measured viability at up to 20 μM of CN(C)c1ccc(NCc2ccc[nH]2)cc1 [compound 4] and report it.
~60%

* * *

# experiment: Stability in solution (UV–vis, ESI–MS), metal-free
# Assay type: physicochemical
# assay conditions: 50 μM, HEPES pH 7.4, 150 μM NaCl, 37 °C; absorbance peak decay
assay endpoint: t1/2, metal-free

Provide t1/2, metal-free value for the following compound: CN(C)c1ccc(NCc2ccc[nH]2)cc1 [compound 4]
~40 min

* * *

# experiment: UV–vis variable-pH titration (pKa)
# Format: physicochemical
# assay conditions: aqueous solution (10 mM NaOH, 100 mM NaCl) titrated with HCl, 100 μM
assay endpoint: pKa
Form: value (number only, do not type unit).

State its pKa for this molecule: `COc1cc(NCc2ccccn2)cc(OC)c1`
5

* * *

# experiment: Parallel artificial membrane permeability assay adapted for BBB (PAMPA-BBB)
# Format: in vitro ADME
# assay conditions: 25 μM, pH 7.4, 4 h
Catalogue of compounds with associated −logPe

Would you please look over these solved cases?
# smiles representation, −logPe
records = [
    ("CN(C)c1ccc(NCc2ccc3ccccc3n2)cc1", "4.2(2)"),
    ("CN(C)c1ccc(NCc2ccc[nH]2)cc1", "4.9(0)"),
    ("Nc1ccc(NCc2ccccn2)cc1", "5.0(1)"),
]

From here, focus on the item given below.
Specify measured −logPe for `COc1cc(NCc2ccccn2)cc(OC)c1` .
4.2(8)
